TARGET OF ASSAY: MASP-2 CCP2-SP (Homo sapiens (Human))
PROCEDURE DETAILS: MASP-2 co-crystallization, X-ray crystallography and structure analysis (H-bonds, van der Waals contacts)
PROTOCOL CONDITIONS: Table A6-2 pharmacophore angle
ASSAY READOUT: a(O2, N2, CA2)
Simply state the number, no unit and no words.

Challenge: Value lookup for a(O2, N2, CA2); key = C[C@H](NC(=O)[C@H]1C[C@H](Cc2ccccc2)CN1)C(=O)NCc1ccc(C(=N)N)cc1.Cl.Cl [1306_1]
Response given: 155.89

Challenge: Moving on to the next compound: Cc1nc(N)ccc1CNC(=O)[C@H](C)NC(=O)[C@H]1C[C@H](Cc2cccc(Cl)c2)CN1.Cl.Cl [1328_1]
Response given: 155.25

Challenge: Same question for C[C@H](NC(=O)[C@H](N)CCc1cccc(Cl)c1)C(=O)NCc1ccc(C(=N)N)cc1 please.
Response given: 153.98

###

TARGET OF ASSAY: MASP-2 CCP2-SP (Homo sapiens (Human))
PROCEDURE DETAILS: MASP-2 co-crystallization, X-ray crystallography and structure analysis (H-bonds, van der Waals contacts)
Parameters: unit not given beside the values
PROTOCOL CONDITIONS: Table A2-11
ASSAY READOUT: van der Waals contact distance, SER 654 C to compound atom
The response must contain the number and no unit.

Challenge: Would you mind telling me what van der Waals contact distance, SER 654 C to compound atom value was observed for Cc1nc(N)ccc1CNC(=O)[C@H](C)NC(=O)[C@H]1C[C@H](Cc2cccc(Cl)c2)CN1 [compound 1328] ?
Response given: 3.62

Challenge: Could you do the same for N=C(N)c1ccc(CNC(=O)[C@@H]2CCN2C(=O)[C@H]2Cc3ccccc3CN2)cc1 [compound 1034] , please?
Response given: 3.83

Challenge: Let us now turn to Cc1cc(Cl)cc(CNC(=O)[C@H](C)NC(=O)[C@H]2C[C@H](Cc3ccccc3)CN2)c1O [compound 1307]
Response given: 3.79

###

TARGET OF ASSAY: MASP-2 CCP2-SP (Homo sapiens (Human))
PROCEDURE DETAILS: MASP-2 co-crystallization, X-ray crystallography and structure analysis (H-bonds, van der Waals contacts)
PROTOCOL CONDITIONS: Table A6-1 pharmacophore angle
Structures can show the parent of a compound that is named as a salt.
ASSAY READOUT: a(CA1, O1, O2)
The reply should be a number, written without any unit.

Challenge: Which a(CA1, O1, O2) reading was recorded for the molecule C[C@H](NC(=O)[C@H](N)CCc1cccc(Cl)c1)C(=O)NCc1ccc(C(=N)N)cc1 [compound 1081] ?
Response given: 108.25

Challenge: Request: C[C@H](NC(=O)[C@@H](CCc1ccccc1)NCc1ccc(C(=O)N2CCOCC2)cc1)C(=O)NCc1ccc(C(=N)N)cc1.Cl.Cl [1153_B]
Response given: 144.91

Challenge: Also C[C@H](NC(=O)[C@H](N)C1Cc2ccccc2C1)C(=O)NCc1ccc2c(N)nccc2c1.Cl.Cl [1088_B] , if possible.
Response given: 99.27

Challenge: Now try C[C@H](NC(=O)[C@H](N)CCc1ccccc1)C(=O)NCc1ccc(N)nc1.Cl.Cl [1007_1] .
Response given: 107.37

Challenge: Input C[C@H](NC(=O)[C@H]1C[C@H](Cc2ccccc2)CN1)C(=O)NCc1cnc2[nH]cc(Cl)c2c1 [compound 1334]
Response given: 100.10

Challenge: Next: N=C(N)c1ccc(CNC(=O)[C@@H]2CCN2C(=O)[C@H](NCC(=O)O)C2Cc3ccccc3C2)cc1 [compound 1129]
Response given: 111.77

Challenge: Next record, please: CC(NC(=O)C(CCc1ccccc1)NCCCc1ccc(O)cc1)C(=O)NCc1ccc(C(=N)N)cc1.Cl.Cl (stereo not shown) [1145_A]
Response given: 111.73

Challenge: Also Cc1cccc([C@H]2CN[C@@H](C(=O)N[C@@H](C)C(=O)NCc3ccc(N)nc3C)C2)c1 [compound 1257, Dihydrochloride] ?
Response given: 109.00

Challenge: Would you kindly repeat that for CC(=O)Nc1ccc(CCNC(CCc2ccccc2)C(=O)NC(C)C(=O)NCc2ccc(C(=N)N)cc2)cc1.Cl.Cl (stereo not shown) [1345_1] ?
Response given: 112.39

Challenge: And Cc1nc(N)ccc1CNC(=O)[C@H](C)NC(=O)[C@H]1C[C@@H](c2ccccc2)CCN1CCC(=O)O [compound 1411, Trifluoroacetate salt] ?
Response given: 109.85

###

TARGET OF ASSAY: UniProt O00187
PROCEDURE DETAILS: MASP-2 co-crystallization, X-ray crystallography and structure analysis (H-bonds, van der Waals contacts)
PROTOCOL CONDITIONS: Table A8-6; nearest protein atom in cell to the left
Assign Pharmacophore protein distance to PHE_529 to each entry below.
# respond with the number and nothing more

Challenge: I have this compound here, C[C@H](NC(=O)[C@H](N)CCc1cccc(Cl)c1)C(=O)NCc1ccc(C(=N)N)cc1 , and I need its recorded Pharmacophore protein distance to PHE_529.
Response given: 3.23

Challenge: Check C[C@H](NC(=O)[C@H]1C[C@@H](c2ccccc2)CCN1)C(=O)NCc1ccc(C(=N)N)cc1 (stereo in doubt) too.
Response given: 2.70

Challenge: Note, next up: CNC(=O)c1ccc2c(=O)n(Cc3ccccc3)c(=O)n(CC(=O)NCc3ccc(C(=N)N)cc3)c2c1
Response given: 2.90

Challenge: What about C[C@H](NC(=O)[C@H](N)CCc1ccccc1)C(=O)NCc1ccc(N)nc1.Cl.Cl [1007_1] ?
Response given: 3.15

Challenge: Likewise for C[C@H](NC(=O)[C@H](N)C1Cc2ccccc2C1)C(=O)NCc1ccc2nc(N)[nH]c2c1 ?
Response given: 2.97

###

TARGET OF ASSAY: MASP-2 CCP2-SP (Homo sapiens (Human), UniProt O00187)
Sequence (O00187 445-686): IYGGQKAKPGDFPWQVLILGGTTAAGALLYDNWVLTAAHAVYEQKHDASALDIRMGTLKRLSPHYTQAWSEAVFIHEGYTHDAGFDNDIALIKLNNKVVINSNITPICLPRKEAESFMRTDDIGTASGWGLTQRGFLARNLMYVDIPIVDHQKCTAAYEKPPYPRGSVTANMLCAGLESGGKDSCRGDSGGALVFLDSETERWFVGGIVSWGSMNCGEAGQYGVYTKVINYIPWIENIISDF
Sequence (O00187 364-432 partner): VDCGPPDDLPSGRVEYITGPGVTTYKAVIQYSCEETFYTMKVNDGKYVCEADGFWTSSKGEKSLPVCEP
PROCEDURE DETAILS: MASP-2 co-crystallization, X-ray crystallography and structure analysis (H-bonds, van der Waals contacts)
PROTOCOL CONDITIONS: Table A7-1; between pharmacophore elements of the bound compound
Would you mind telling me the reported Pharmacophore torsion angle a(H4, O1, O2, N2) of each entry?
Answer using only a numeral; do not append any unit.

Challenge: Endpoint output: Pharmacophore torsion angle a(H4, O1, O2, N2) of Cc1nc(N)ccc1CNC(=O)[C@H](C)NC(=O)[C@H]1C[C@H](Cc2cccc(Cl)c2)CN1.Cl.Cl [1328_2] . Value?
Response given: 134.72

Challenge: Next compound: C[C@H](NC(=O)[C@H](N)CCc1ccccc1)C(=O)NCc1ccc(C(=N)N)cc1
Response given: 125.09

Challenge: Another compound to check: C[C@H](NC(=O)[C@H]1C[C@@H](c2ccccc2)CN1)C(=O)NCc1ccc2c(N)nccc2c1.Cl.Cl [1089_A]
Response given: −175.67

Challenge: Input C[C@H](NC(=O)[C@H](N)C1Cc2ccccc2C1)C(=O)NCc1ccc2c(N)nccc2c1.Cl.Cl [1088_B]
Response given: 121.15

Challenge: Moving on to Cc1cc(Cl)cc(CNC(=O)[C@H](C)NC(=O)[C@H]2C[C@H](Cc3ccccc3)CN2)c1O
Response given: −170.13

###

TARGET OF ASSAY: MASP-2 CCP2-SP (Homo sapiens (Human), UniProt O00187)
PROCEDURE DETAILS: MASP-2 co-crystallization, X-ray crystallography and structure analysis (H-bonds, van der Waals contacts)
PROTOCOL CONDITIONS: Table A7-1; between pharmacophore elements of the bound compound
Counter-ions that a name gives are not always drawn.
For each of the compounds below, state its Pharmacophore torsion angle a(H4, O1, O2, H3).
// return a plain number; no unit text

Challenge: // query Pharmacophore torsion angle a(H4, O1, O2, H3) value for entry CC(=O)Nc1ccc(CCNC(CCc2ccccc2)C(=O)NC(C)C(=O)NCc2ccc(C(=N)N)cc2)cc1.Cl.Cl (stereo not drawn) [1345_1]
Response given: 39.71

Challenge: Here is the next compound: Cc1nc(N)ccc1CNC(=O)[C@H](C)NC(=O)[C@H]1C[C@H](Cc2ccccc2)CN1
Response given: 49.79

Challenge: Now consider C[C@H](NC(=O)[C@H]1C[C@@H](c2ccccc2)CCN1)C(=O)NCc1cc(Cl)ccc1O.Cl [1078_13] and answer again.
Response given: −157.30

Challenge: Proceed to C[C@H](NC(=O)[C@H]1C[C@@H](c2ccccc2)CCN1)C(=O)NCc1cc(Cl)ccc1O.Cl [1078_11]
Response given: −120.02

Challenge: Then C[C@H](NC(=O)[C@H]1C[C@@H](c2ccccc2)CCN1)C(=O)NCc1cc(Cl)ccc1O.Cl [1078_9] ?
Response given: −116.62

Challenge: Next compound up: Cc1nc(N)ccc1CNC(=O)[C@H](C)NC(=O)[C@H]1C[C@H](Cc2cccc(-c3ccccc3)c2)CN1
Response given: 50.99

Challenge: Now the same for C[C@H](NC(=O)[C@H](N)C1Cc2ccccc2C1)C(=O)NCc1ccc2c(N)nccc2c1.Cl.Cl [1088_B]
Response given: 45.99

Challenge: How about this compound: C[C@H](NC(=O)[C@@H](CCc1ccccc1)NCc1ccc(C(=O)N2CCOCC2)cc1)C(=O)NCc1ccc(C(=N)N)cc1.Cl.Cl
Response given: 70.64

Challenge: Moving on to the next compound: C[C@H](NC(=O)[C@H]1C[C@@H](c2ccccc2)CCN1)C(=O)NCc1cc(Cl)ccc1O.Cl [1078_8]
Response given: −134.33

Challenge: // same read-out, input: CC(=O)Nc1ccc(CCN[C@H](CCc2ccccc2)C(=O)N[C@@H](C)C(=O)NCc2ccc(N)nc2C)cc1 [compound 1368, Dihydrochloride]
Response given: 40.86

Challenge: Continue with C[C@H](NC(=O)[C@H]1C[C@@H](c2ccccc2)CCN1)C(=O)NCc1cc(Cl)ccc1O.Cl [1078_1]
Response given: −119.94

Challenge: Same lookup for Cc1nc(N)ccc1CNC(=O)[C@H](C)NC(=O)[C@H]1C[C@H](Cc2cccc(Cl)c2)CN1.Cl.Cl [1328_4] , please.
Response given: 44.95

Challenge: Moving on to the next compound: Cc1nc(N)ccc1CNC(=O)C(C)NC(=O)C1CC(c2cccc3ccccc23)CCN1.Cl.Cl (stereo not drawn) [1297_1]
Response given: 50.42

Challenge: Another compound to look at: C[C@H](NC(=O)[C@H]1C[C@@H](c2ccccc2)CCN1)C(=O)NCc1cc(Cl)ccc1O.Cl [1078_2]
Response given: −132.87

Challenge: Field entry: Cc1cnc(NCCc2ccccc2)c(=O)n1CC(=O)NCc1ccc2nc(N)[nH]c2c1
Response given: 94.72

Challenge: Next up: Cc1nc(N)ccc1CNC(=O)[C@H](C)NC(=O)[C@H]1C[C@@H](c2ccccc2)CCN1 [compound 1253, Dihydrochloride]
Response given: 115.64

Challenge: Repeat for the following compound: Cc1nc(N)ccc1CNC(=O)[C@H](C)NC(=O)[C@H]1C[C@H](Cc2ccccc2Br)CN1.O=C(O)C(F)(F)F.O=C(O)C(F)(F)F [1372_B]
Response given: 99.85

Challenge: Do the same for C[C@H](NC(=O)[C@H]1C[C@@H](c2ccccc2)CCN1)C(=O)NCc1cc(Cl)ccc1O.Cl [1078_3] please
Response given: −160.53

Challenge: Another compound to look at: C[C@H](NC(=O)C1C[C@@H](c2ccccc2)CCN1)C(=O)NCc1ccc(C(=N)N)cc1 (stereo in doubt)
Response given: 54.13

Challenge: Thanks! And C[C@H](NC(=O)[C@H]1C[C@@H](c2ccccc2)CCN1)C(=O)NCc1cc(Cl)ccc1O.Cl [1078_12] ?
Response given: −120.32

Challenge: Same thing, different compound: C[C@H](NC(=O)[C@H]1C[C@@H](c2ccccc2)CCN1)C(=O)NCc1cc(Cl)ccc1O.Cl [1078_15]
Response given: −124.63

Challenge: // repeat for C[C@H](NC(=O)[C@H]1Cc2c([nH]c3ccccc23)CN1)C(=O)NCc1ccc(C(=N)N)cc1.Cl.Cl [1097_1] and report
Response given: 86.65

Challenge: Follow-up item: C[C@H](NC(=O)[C@H](N)CCc1cc(Cl)cc(Cl)c1)C(=O)NCc1ccc(C(=N)N)cc1
Response given: 38.74

Challenge: Moving on to C[C@H](NC(=O)[C@H](N)CCc1ccccc1)C(=O)NCc1ccc(N)nc1.Cl.Cl [1007_2]
Response given: 47.32

Challenge: Try this compound next: Cc1nc(N)ccc1CNC(=O)[C@H](C)NC(=O)[C@H]1C[C@@H](Cc2ccccc2)CCN1
Response given: 51.34

Challenge: For C[C@H](NC(=O)[C@H]1C[C@@H](c2ccccc2)CCN1)C(=O)NCc1ccc(C(=N)N)cc1 (stereo in doubt) then?
Response given: 44.38

Challenge: Now give it for N=C(N)c1ccc(CNC(=O)C(CF)NC(=O)[C@H](N)CCc2ccccc2)cc1 (stereo partly drawn) [compound 1050, Dihydrochloride] too.
Response given: 102.21
